src = ChEMBL document CHEMBL1201862

System: A498
Measurement protocol: NCI tumour cell line growth inhibition, 48 h
The source made the active and inactive calls. Rule as the data show it: active = GI50 up to about 1.1 µM and inactive = higher. Starred links: 1 amine or outer side, 2 acyl side, 3 side chain; linkers in the order of their positions; H or OH if unused. Non-standard residues stand in square brackets, D forms with d. Residues, ends and D or L forms follow the SMILES beside them. *: point of attachment. X47 = CCC(=O)CC1CC(C)CC(C(=O)[*:2])N1[*:1]; X46 = CCCCCCCCC(C)C(=O)*; Aib = CC(C)(N)C(=O)O; X48 = CC(CN(C)CCO)N*
Give one outcome, nothing more. List: 1 for active, 0 for inactive

Problem: Query: recorded result category for "CCOC(=O)c1sc2nc(SC)nc3c2c1NC(=O)CN3c1cccc(F)c1" in this test
Result: 0

Problem: For "O=c1cc(-c2ccccc2F)[nH]c2ccc(N3CCCC3)cc12" then?
Result: 1

Problem: For "CN(C)CC/C(=N\Nc1ccc(Cl)c(Cl)c1)c1ccccc1" then?
Result: 0

Problem: For CC1OCC2OC(C)OC(C3C4=C(CC(C)(C)CC4=O)OC4=C3C(=O)CC(C)(C)C4)C2O1 (stereo unspecified) then?
Result: 0

Problem: For "CSc1ccc2c(cc1=O)[C@@H](NC(=O)c1cccc([N+](=O)[O-])c1)CCc1cc(O)c(O)c(O)c1-2" then?
Result: 0

Problem: For CC(=O)OC1C(O)COC(O[C@H]2CC[C@]34C[C@]35CC[C@]3(C)C([C@@]6(C)CC[C@@H](C(C)(C)O)O6)[C@@H](O)C[C@@]3(C)C5C[C@H](OC3OCC(O)C(O)C3O)[C@H]4C2(C)C)C1OC1OCC(O)C(O)C1O (stereo partly specified) then?
Result: 0

Problem: For "CC(C)(C)O/N=C/c1cc(NC(=S)c2ccsc2)ccc1Cl" then?
Result: 0

Problem: For "COc1ccc(C2=C(N)c3c(Cl)cccc3C2=O)cc1" then?
Result: 0

Problem: For CCOC(=O)C1S/C(=N\c2ccc(Cl)cc2Cl)N=C1C (stereo unspecified) then?
Result: 0

Problem: For COc1cc2c(c(OC)c1OC)-c1ccc(SC)c(=O)cc1C(CC(=O)Oc1ccccc1F)C2 (stereo unspecified) then?
Result: 1

Problem: For O=C1C(CN2CCCCC2)CCCC1CN1CCCCC1 (stereo unspecified) then?
Result: 0

Problem: For N#CC1C(=O)C(=O)N(c2ccccc2)C1=O (stereo unspecified) then?
Result: 0

Problem: For "c1ccc(SC(Sc2ccccc2)c2ccc3c(c2)OCO3)cc1" then?
Result: 0

Problem: For "O=C(Nc1ccc(S(=O)(=O)Nc2ncccn2)cc1)c1c2ccccc2nc2ccccc12" then?
Result: 0

Problem: For "Oc1cn(-c2ccc(Cl)cc2)nc1-c1nnc(-c2ccccc2)o1" then?
Result: 0

Problem: For CC(CN1CCN(CC(C)Nc2ccnc3cc(Cl)ccc23)CC1)Nc1ccnc2cc(Cl)ccc12 (stereo unspecified) then?
Result: 0

Problem: For "Cn1c(=O)c2nc3c(=O)n(C)c(=O)n(CC(N)=O)c3nc2n(C)c1=O" then?
Result: 0

Problem: For "COc1cc(CN[C@H]2CCc3cc(OC)c(OC)c(OC)c3-c3ccc(SC)c(=O)cc32)cc(OC)c1" then?
Result: 1

Problem: For CCCCCCCCC(C)C(=O)N1CCCC1C(=O)N1C(CC(=O)CC)CC(C)CC1C(=O)NC(C)C(=O)NC(C)(C)C(=O)NC(C)(C)C(=O)NC(C(=O)NC(C)C(=O)NC(C)(C)C(=O)NC(C)(C)C(=O)NC(C)CN(C)CCO)C(C)CC (stereo unspecified) (X46-P[X47]A[Aib][Aib]IA[Aib][Aib]-X48; configuration not given here) then?
Result: 0
